Target: T1, human TGFbR1 ECD-133-huFc (human)
T1 chain: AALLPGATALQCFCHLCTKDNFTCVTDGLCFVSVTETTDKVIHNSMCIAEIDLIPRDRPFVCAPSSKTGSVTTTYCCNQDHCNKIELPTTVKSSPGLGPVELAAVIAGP
Assay: ELISA
Below, each entry is listed with its recorded EC50.
Return type: number; implicit unit µg/mL.

Some solved entries appear below for comparison.
BINDER	VALUE UNIT	EC50
YU772-G04_VH-YU771-A09-VL (antibody, V domains shown) VH: EVQLLESGGGLVQPGGSLRLSCAASGFPFSSYAMSWVRQAPGKGLEWVSAISGSGGTTYYADSVKGRFTISRDNSKNTLYLQMNSLRAEDTAVYYCARVAGYVHRGFYGGGMDYWGQGTLVTVSS VL: DIQMTQSPSSLSASVGDRVTITCRASQSIYSHLNWYQQKPGKAPKLLIYAASTLQSGVPSRFSGSGSGTDFTLTISSLQPEDFATYYCQQAYGPLTFGQGTKLEIK	µg/mL	0.0257
YU772-D10 (antibody, V domains shown) VH: EVQLLESGGGLVQPGGSLRLSCAASGFTFSSYPMSWVRQAPGKGLEWVSAISGYGGSTYYADSVKGRFTISRDNSKNTLYLQMNSLRAEDTAVYYCARVVGYVYDGSYGGGMDYWGQGTLVTVSS VL: DIQMTQSPSSLSASVGDRVTITCRASQSISSYLNWYQQKPGKAPKLLIYAASSLQSGVPSRFSGSGSGTDFTLTISSLQPEDFATYYCQQGYGPLTFGQGTKLEIK	µg/mL	0.0225

Asked: Requested read-out: EC50. Entry: YU772-A11 (antibody, V domains shown) VH: EVQLLESGGGLVQPGGSLRLSCAASGFTFSSYAMSWVRQAPGKGLEWVSAISGSGGYTYYADSVKGRFTISRDNSKNTLYLQMNSLRAEDTAVYYCARVVGYVYDGAYGGGMDYWGQGTLVTVSS VL: DIQMTQSPSSLSASVGDRVTITCRASQSISSYLNWYQQKPGKAPKLLIYAASSLQSGVPSRFSGSGSGTDFTLTISSLQPEDFATYYCQQGYGPLTFGQGTKLEIK
Given back: 0.0314

Where these numbers come from: patent US20260374880
